Cited source: PubChem BioAssay (EPA / NIEHS)

Read-out: Interleukin 17F (IL17F), IL17F (gene 112744)
Experiment: BSK_BT_xIL17F: BioMAP Diversity Plus: BT Assay for Interleukin 17F (IL17F) Biomarker Activity (AID 2284243)
Details: primary human B cells with PBMC
The source made the active and inactive calls. Rule for the calls: active = hit-call score of the fitted dose curve at least 0.9, where 1 is the maximum; inactive = score below 0.9.
# output must be one of yes (active), no (inactive)

Hi, sorry to bother you, what did the test record for O=S(=O)(O)CCC(F)(F)C(F)(F)C(F)(F)C(F)(F)C(F)(F)C(F)(F)F ? no

Hi, sorry to bother you, what did the test record for S=P(N1CC1)(N1CC1)N1CC1 ? yes

Hi, sorry to bother you, what did the test record for O=C(Cl)C(F)(F)C(F)(F)C(F)(F)C(=O)Cl ? no

Hi, sorry to bother you, what did the test record for FC(F)(F)COC(OCC(F)(F)F)OCC(F)(F)F ? no

Hi, sorry to bother you, what did the test record for OCCC(F)(F)C(F)(F)C(F)(F)C(F)(F)F ? no

Hi, sorry to bother you, what did the test record for NCC(F)(F)C(F)(F)C(F)(F)C(F)(F)F ? no

Hi, sorry to bother you, what did the test record for C[Si](C)(C)C(F)(F)C(F)(F)C(F)(F)F ? no

Hi, sorry to bother you, what did the test record for Cc1cccc(O)c1C ? no

Hi, sorry to bother you, what did the test record for FC(F)=C(F)C(F)(F)C(F)(F)C(F)(F)C(F)(F)C(F)(F)C(F)(F)F ? no

* * *

Test: CCTE_Padilla_ZF_Score.Edema: CCTE's 144 Hour Post-fertilization zebrafish Assay Score for Edema Malformation, Padilla Lab (AID 2284406)
Calls of active or inactive are those of the source. Rule for the calls: active = hit-call score of the fitted dose curve at least 0.9, where 1 is the maximum; inactive = score below 0.9.
# output must be one of active, inactive

Hi, sorry to bother you, what did the test record for OCCC(F)(F)C(F)(F)C(F)(F)C(F)(F)F ? inactive

Hi, sorry to bother you, what did the test record for OC(O)(C(F)C(O)(O)C(F)(F)F)C(F)(F)F ? active

Hi, sorry to bother you, what did the test record for C[Si](C)(C)C(F)(F)C(F)(F)C(F)(F)F ? inactive

Hi, sorry to bother you, what did the test record for FC(F)(F)C(F)(F)C(F)(F)C(F)(F)C(F)(F)C(F)(F)I ? inactive

* * *

Assay: APR_HepG2_NuclearSize_72hr: Apredica 72-hour HepG2 Assay for Nuclear Size (AID 2282925)
Details: high-content imaging, actives raise or lower the signal
Activity calls are given as the source filed them. How the source made its calls: active means hit-call score of the fitted dose curve at least 0.9, where 1 is the maximum; inactive means score below 0.9.
# output must be one of yes (1) (active), no (0) (inactive)

Hi, sorry to bother you, what did the test record for O=C(O)[C@H](O)[C@@H](O)C(=O)O ? no (0)

Hi, sorry to bother you, what did the test record for C=CN1CCCC1=O ? no (0)

Hi, sorry to bother you, what did the test record for c1ccc(C(O[C@@H]2CCCN(CCc3ccc4c(c3)OCO4)C2)c2ccccc2)cc1 ? no (0)

Hi, sorry to bother you, what did the test record for CC(C)C(=O)Nc1ccc([N+](=O)[O-])c(C(F)(F)F)c1 ? yes (1)

Hi, sorry to bother you, what did the test record for O=C(O)c1cccc(C[C@@H]2COc3ccc(OCc4nc5cc(F)ccc5s4)cc3[C@@H]2O)c1 ? no (0)

Hi, sorry to bother you, what did the test record for CNC(C)=O ? no (0)

Hi, sorry to bother you, what did the test record for CCc1ccc(O)c(C(C)(C)C)c1 ? no (0)

Hi, sorry to bother you, what did the test record for COS(C)(=O)=O ? no (0)

Hi, sorry to bother you, what did the test record for CCCCCCCCCCCCCCCCOS(=O)(=O)O ? no (0)

Hi, sorry to bother you, what did the test record for CCCCCCCCCC ? no (0)

Hi, sorry to bother you, what did the test record for O=S1(=O)CCCO1 ? no (0)

Hi, sorry to bother you, what did the test record for CCCC(CCC)C(=O)O ? no (0)

Hi, sorry to bother you, what did the test record for CC[C@H](C)C(=O)O[C@H]1C[C@H](O)C=C2C=C[C@H](C)[C@H](CC[C@@H](O)C[C@@H](O)CC(=O)O)[C@H]21 ? no (0)
